# studyTarget: AR protein (Homo sapiens, UniProt P10275)
# Construct: degradation activity of the compounds disclosed in the present disclosure on AR protein in VCaP cells; host or cells: VCaP
# Sequence (P10275 whole entry): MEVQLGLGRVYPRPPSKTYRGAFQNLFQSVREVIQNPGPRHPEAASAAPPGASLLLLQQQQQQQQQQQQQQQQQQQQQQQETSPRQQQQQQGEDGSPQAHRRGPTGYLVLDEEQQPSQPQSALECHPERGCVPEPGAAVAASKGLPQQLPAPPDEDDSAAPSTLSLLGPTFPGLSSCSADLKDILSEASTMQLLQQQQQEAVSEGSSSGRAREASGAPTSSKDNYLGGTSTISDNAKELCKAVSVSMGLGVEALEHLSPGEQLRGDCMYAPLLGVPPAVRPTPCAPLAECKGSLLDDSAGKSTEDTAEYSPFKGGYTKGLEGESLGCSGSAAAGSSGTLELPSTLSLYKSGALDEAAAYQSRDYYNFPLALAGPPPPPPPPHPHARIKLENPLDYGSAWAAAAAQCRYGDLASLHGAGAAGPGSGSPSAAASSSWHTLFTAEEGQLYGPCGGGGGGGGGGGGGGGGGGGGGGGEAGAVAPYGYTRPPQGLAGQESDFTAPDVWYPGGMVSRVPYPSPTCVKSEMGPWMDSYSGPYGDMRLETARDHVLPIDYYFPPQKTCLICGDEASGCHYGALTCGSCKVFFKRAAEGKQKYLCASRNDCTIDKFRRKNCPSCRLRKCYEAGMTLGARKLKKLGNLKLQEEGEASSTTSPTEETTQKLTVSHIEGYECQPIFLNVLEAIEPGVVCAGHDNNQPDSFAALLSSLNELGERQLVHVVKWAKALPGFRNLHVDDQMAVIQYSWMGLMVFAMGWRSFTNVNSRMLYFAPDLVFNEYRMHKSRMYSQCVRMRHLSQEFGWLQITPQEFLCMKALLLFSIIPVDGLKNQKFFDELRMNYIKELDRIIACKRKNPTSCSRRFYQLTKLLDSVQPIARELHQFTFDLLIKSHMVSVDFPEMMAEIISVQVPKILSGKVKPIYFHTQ
# testDetails: Degradation of AR protein in VCaP cells (Western blot)
# Format: cell-based
# assayConditions: compound at 100 nM, 8 hours, read-out: Degradation rate of the AR protein in VCaP cells, 100 nM (%)
metricName: inhibition at 0.1 µM (%)
Give bare numbers, in %.

Previously resolved entries follow.
>  <compound>
N#Cc1ccc(O[C@H]2CC[C@H](NC(=O)c3ccc(C#CC4CCC(N5CCC6(CC5)COc5c6ccc6c5CN(C5CCC(=O)NC5=O)C6=O)CC4)nc3)CC2)cc1Cl (stereo partly drawn)

>  <inhibition at 0.1 µM (%)>
76

$$$$
>  <compound>
COc1cc(O[C@H]2CC[C@H](NC(=O)c3cnc(N4CCC(CN5CC6(CCc7cc8c(cc7O6)C(=O)N(C6CCC(=O)NC6=O)C8=O)C5)(OC)CC4)nc3)CC2)ccc1C#N (stereo partly drawn)

>  <inhibition at 0.1 µM (%)>
43

$$$$

For COc1cc(O[C@H]2C(C)(C)[C@H](NC(=O)c3ccc(N4CCC(C)(CN5CC6(CCc7cc8c(cc7O6)C(=O)N(C6CCC(=O)NC6=O)C8=O)C5)CC4)cc3)C2(C)C)ccc1C#N (stereo partly drawn) the compound record lists inhibition at 0.1 µM as 53
